Molecular target: hERG (Homo sapiens, UniProt Q12809)
Sequence (Q12809 whole entry): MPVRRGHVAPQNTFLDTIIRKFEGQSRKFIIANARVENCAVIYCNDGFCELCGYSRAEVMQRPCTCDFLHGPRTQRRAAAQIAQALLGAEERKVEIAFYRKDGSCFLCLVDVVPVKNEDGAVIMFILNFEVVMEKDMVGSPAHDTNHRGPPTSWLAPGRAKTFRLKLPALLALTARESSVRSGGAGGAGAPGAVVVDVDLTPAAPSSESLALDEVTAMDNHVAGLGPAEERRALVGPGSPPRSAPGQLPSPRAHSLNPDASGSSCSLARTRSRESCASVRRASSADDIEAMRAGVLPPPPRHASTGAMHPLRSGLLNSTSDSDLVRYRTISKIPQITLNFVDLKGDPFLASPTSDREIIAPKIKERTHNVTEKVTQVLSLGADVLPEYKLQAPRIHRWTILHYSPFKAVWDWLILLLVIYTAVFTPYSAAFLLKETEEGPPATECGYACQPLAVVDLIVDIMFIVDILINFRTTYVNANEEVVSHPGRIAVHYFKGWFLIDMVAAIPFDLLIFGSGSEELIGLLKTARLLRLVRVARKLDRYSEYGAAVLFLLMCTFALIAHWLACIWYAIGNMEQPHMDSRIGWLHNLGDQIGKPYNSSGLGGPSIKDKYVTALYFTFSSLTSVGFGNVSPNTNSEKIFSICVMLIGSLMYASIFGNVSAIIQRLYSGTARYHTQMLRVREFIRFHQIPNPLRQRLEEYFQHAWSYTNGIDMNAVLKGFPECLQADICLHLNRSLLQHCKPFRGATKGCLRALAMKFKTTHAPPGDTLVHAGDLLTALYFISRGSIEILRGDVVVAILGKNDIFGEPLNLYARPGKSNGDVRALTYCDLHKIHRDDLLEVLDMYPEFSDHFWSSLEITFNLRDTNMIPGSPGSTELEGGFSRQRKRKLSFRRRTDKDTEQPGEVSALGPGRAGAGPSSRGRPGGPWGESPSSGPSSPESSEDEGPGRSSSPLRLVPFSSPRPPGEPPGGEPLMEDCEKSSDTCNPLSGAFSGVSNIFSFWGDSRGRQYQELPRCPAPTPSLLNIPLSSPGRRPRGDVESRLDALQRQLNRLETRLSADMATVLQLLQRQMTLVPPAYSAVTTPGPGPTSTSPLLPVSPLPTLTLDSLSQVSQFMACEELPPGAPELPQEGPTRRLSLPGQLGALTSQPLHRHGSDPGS
Experiment: Inhibition of hERG at 10 uM relative to control
Format: toxicity
Quantity measured: inhibition at 10 µM (%)
State just the number; it will be interpreted in %.

[Q] Can you look up inhibition at 10 µM on hERG (Homo sapiens, UniProt Q12809) for "Cl.Cl.N[C@@H](Cc1ccc(OCCCN2CCC(c3noc4cc(F)ccc34)CC2)cc1)C(=O)O" ?
[A] 30.9

---

Biological target: 5-hydroxytryptamine receptor 2A (Homo sapiens)
Sequence (P28223 whole entry): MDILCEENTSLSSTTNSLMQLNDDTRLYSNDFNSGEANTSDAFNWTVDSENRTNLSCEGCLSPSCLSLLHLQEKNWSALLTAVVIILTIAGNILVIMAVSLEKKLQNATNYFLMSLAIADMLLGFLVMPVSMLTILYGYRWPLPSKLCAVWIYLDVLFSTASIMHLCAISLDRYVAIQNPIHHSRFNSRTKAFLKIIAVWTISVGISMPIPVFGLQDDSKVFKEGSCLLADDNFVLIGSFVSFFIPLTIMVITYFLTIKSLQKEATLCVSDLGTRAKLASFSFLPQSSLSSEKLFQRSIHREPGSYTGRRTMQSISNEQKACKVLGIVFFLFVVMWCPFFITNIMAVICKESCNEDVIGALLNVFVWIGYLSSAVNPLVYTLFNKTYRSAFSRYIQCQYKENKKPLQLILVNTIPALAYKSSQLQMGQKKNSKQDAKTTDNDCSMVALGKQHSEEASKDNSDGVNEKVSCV
Experiment: Inhibition of 5HT2A receptor (unknown origin) expressed in HEK293 cells by FLIPR Calcium 6 dye based assay
Hi there, I'd appreciate the recorded IC50 for every entry that follows.
Numbers only here, please. The scale is nM.

[Q] Look at this molecule and give its reported IC50. "N[C@@H](Cc1ccc(OCCCCN2CCC(c3noc4cc(F)ccc34)CC2)cc1)C(=O)O"
[A] 3.6

[Q] Reported IC50 for Cl.Cl.N[C@@H](Cc1ccc(OCC(O)CN2CCC(c3noc4cc(F)ccc34)CC2)cc1)C(=O)O (stereo partly drawn) : what is it?
[A] 2.15

[Q] Value lookup for IC50; key = "Cl.Cl.N[C@@H](Cc1ccc(OCCCN2CCC(c3noc4cc(F)ccc34)CC2)cc1)C(=O)O"
[A] 0.17

---

Experiment: Stability in mouse liver microsomes assessed as parent compound remaining measured after 30 mins
Type: ADME, Microsome
Conditions: read-out: Stability
Quantity measured: remaining at 0.5 h

[Q] I would be grateful if you could share the reported remaining at 0.5 h for "Cl.Cl.N[C@@H](Cc1ccc(OCCCN2CCC(c3noc4cc(F)ccc34)CC2)cc1)C(=O)O" .
[A] > 99%

---

Molecular target: 5-hydroxytryptamine receptor 2A (Homo sapiens)
Assay: Inhibition of 5HT2A receptor (unknown origin) expressed in HEK293 cells at 1 uM by FLIPR Calcium 6 dye based assay relative to control
Assay type: functional, cell-based
Exercise: for every item that follows, state its recorded inhibition.
Give the value, in units of %, as a plain number.

[Q] // inhibition lookup, key: "O=C(O)c1ccc(OCCN2CCN(c3nsc4ccccc34)CC2)cc1"
[A] 33.3

[Q] Entry under review: "Cl.Cl.N[C@@H](Cc1ccc(OCCN2CCN(c3nsc4ccccc34)CC2)cc1)C(=O)O" . Reported inhibition?
[A] 73.9

[Q] For "N[C@@H](Cc1ccc(OCCN2CCC(C(=O)c3ccc(F)cc3)CC2)cc1)C(=O)O" , what is its reported inhibition?
[A] 35.1

[Q] Please give the measured inhibition for this molecule: "Cl.Cl.N[C@@H](Cc1ccc(OCCCN2CCC(c3noc4cc(F)ccc34)CC2)cc1)C(=O)O"
[A] 92

[Q] Value lookup for inhibition; key = "N[C@@H](Cc1ccc(OCCN2CCC(c3noc4cc(F)ccc34)CC2)cc1)C(=O)O"
[A] 74.8

[Q] Which inhibition value is on record for Cl.Cl.N[C@@H](Cc1ccc(OCC(O)CN2CCC(c3noc4cc(F)ccc34)CC2)cc1)C(=O)O (stereo partly specified) ?
[A] 90.8

[Q] What inhibition value was documented for this molecule, "O=C(O)Cc1ccc(OCCN2CCN(c3nsc4ccccc34)CC2)cc1" ?
[A] 9.53

[Q] Could you tell me which inhibition is on file for "N[C@@H](Cc1ccc(OCCN2CCN(c3cccc(Cl)c3Cl)CC2)cc1)C(=O)O" ?
[A] 43.2

[Q] For "N[C@H](Cc1ccc(OCCN2CCN(c3nsc4ccccc34)CC2)cc1)C(=O)O" , what is its reported inhibition?
[A] 53.4

[Q] Query: inhibition; subject: "O=C(O)CCc1ccc(OCCN2CCN(c3nsc4ccccc34)CC2)cc1"
[A] 43.4

[Q] Find the recorded inhibition belonging to "N[C@@H](Cc1ccc(OCCCCN2CCC(c3noc4cc(F)ccc34)CC2)cc1)C(=O)O" and report it.
[A] 91.4

---

Test: Drug concentration in plasma of ICR mouse at 5 mg/kg, iv measured at 1 hr
Type: ADME, organism-based
What concentration at 1 h was measured for each of the following?
Could you give me the number in ng/mL? Just the number is fine.

[Q] Item "Cl.Cl.N[C@@H](Cc1ccc(OCCN2CCN(c3nsc4ccccc34)CC2)cc1)C(=O)O" has what recorded concentration at 1 h?
[A] 165

[Q] Any idea what its concentration at 1 h is? The compound is "O=C(O)CCc1ccc(OCCN2CCN(c3nsc4ccccc34)CC2)cc1"
[A] 114

[Q] // returns reported concentration at 1 h for input "Cl.Cl.N[C@@H](Cc1ccc(OCCCN2CCC(c3noc4cc(F)ccc34)CC2)cc1)C(=O)O"
[A] 901

[Q] // query concentration at 1 h value for entry Cl.Cl.N[C@@H](Cc1ccc(OCC(O)CN2CCC(c3noc4cc(F)ccc34)CC2)cc1)C(=O)O (some centres undefined)
[A] 1230

---

Experiment: Stability in rat liver microsomes assessed as parent compound remaining measured after 30 mins
Type: ADME, Microsome
Details: read-out: Stability
Quantity measured: remaining at 0.5 h (%)
// note: answer is a bare numeric in %

[Q] Item under review: "Cl.Cl.N[C@@H](Cc1ccc(OCCCN2CCC(c3noc4cc(F)ccc34)CC2)cc1)C(=O)O" . Reported remaining at 0.5 h?
[A] 98.5
